Data origin, for the record: ChEMBL document CHEMBL4414643

assay: Tmax in anesthetized C57BL/6J mouse brain at 10 mg/kg, ip administered as single dose measured upto 240 mins in presence of vegetable oil by LC-MS/MS analysis; format: ADME, organism-based
OBSERVED PROPERTY: Tmax
State the value, then name its unit.

**Q:** // query Tmax value for entry C=C(C)[C@@H]1CCC(C)=C[C@H]1c1c(O)cc(CCCCC)c(C(=O)O)c1O [CANNABIDIOLIC ACID]
**A:** 45 min

###

experiment: Tmax in anesthetized C57BL/6J mouse plasma at 10 mg/kg, ip administered as single dose measured upto 240 mins in presence of vegetable oil by LC-MS/MS analysis; format: ADME, organism-based
Would you mind telling me the reported Tmax of each entry?
API: value field is a number in min; no unit string.

**Q:** // query Tmax value for entry CCCCCc1cc2c(c(O)c1C(=O)O)[C@@H]1C=C(C)CC[C@H]1C(C)(C)O2 [DELTA9-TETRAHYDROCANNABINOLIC ACID A]
**A:** 15

**Q:** // query Tmax value for entry C=C(C)[C@@H]1CCC(C)=C[C@H]1c1c(O)cc(CCCCC)c(C(=O)O)c1O [CANNABIDIOLIC ACID]
**A:** 30
